The reported numbers originate from paper PMC6164331.

# assayed_system: tubulin (Sus scrofa, UniProt P02550+P02554)
# Sequence (P02550 whole entry): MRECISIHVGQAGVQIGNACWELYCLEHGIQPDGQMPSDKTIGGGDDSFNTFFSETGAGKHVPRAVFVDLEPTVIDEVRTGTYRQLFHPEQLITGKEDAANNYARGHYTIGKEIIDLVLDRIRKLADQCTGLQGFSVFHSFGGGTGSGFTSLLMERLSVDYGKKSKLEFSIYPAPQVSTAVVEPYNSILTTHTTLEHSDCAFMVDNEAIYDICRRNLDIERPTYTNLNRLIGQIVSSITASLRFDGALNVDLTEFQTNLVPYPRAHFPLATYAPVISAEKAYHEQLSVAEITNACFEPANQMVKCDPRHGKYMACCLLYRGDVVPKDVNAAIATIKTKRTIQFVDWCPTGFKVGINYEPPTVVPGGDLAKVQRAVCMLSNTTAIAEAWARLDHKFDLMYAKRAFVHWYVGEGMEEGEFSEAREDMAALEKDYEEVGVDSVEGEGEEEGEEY
# Sequence (P02554 whole entry): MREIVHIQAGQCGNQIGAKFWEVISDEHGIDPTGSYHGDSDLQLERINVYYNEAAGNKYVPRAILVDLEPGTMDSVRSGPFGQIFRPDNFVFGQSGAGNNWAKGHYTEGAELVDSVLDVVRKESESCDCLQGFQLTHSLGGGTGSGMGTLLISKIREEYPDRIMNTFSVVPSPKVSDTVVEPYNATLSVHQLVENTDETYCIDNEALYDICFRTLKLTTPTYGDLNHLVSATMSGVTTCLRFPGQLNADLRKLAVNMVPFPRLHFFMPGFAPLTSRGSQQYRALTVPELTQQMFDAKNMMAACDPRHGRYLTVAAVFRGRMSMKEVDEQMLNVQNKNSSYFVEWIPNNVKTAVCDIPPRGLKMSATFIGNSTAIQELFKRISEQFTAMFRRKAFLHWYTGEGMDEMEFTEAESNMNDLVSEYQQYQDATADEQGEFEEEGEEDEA
# test_method_notes: Cell-free tubulin polymerization assay
# condition: colchicine as positive control, read-out: IC50 against tubulin polymerization
property: IC50 (µM)

Example cases with answers are listed next.
Asked: Look up IC50: COc1ccc(/C=C/C(=O)c2cc(Br)cc3cc(-c4ccc(OC)cc4)oc23)cc1 [3x]
Given back: 67.4

Asked: Look up IC50: O=C(/C=C/c1ccc(Cl)cc1)c1cc(Br)cc2cc(-c3cccc(Cl)c3)oc12 [3r]
Given back: 34.5

Asked: Look up IC50: COc1ccc(-c2cc3cc(Br)cc(C(=O)/C=C/c4ccc(OC(F)(F)F)cc4)c3o2)cc1 [3y]
Given back: 78

Asked: Look up IC50: O=C(/C=C/c1ccccc1)c1cc(Br)cc2cc(-c3cccc(Cl)c3)oc12 [3p]
Given back: 0.0937

Asked: Look up IC50: COc1ccc(/C=C/C(=O)c2cc(Br)cc3cc(-c4cccc(Cl)c4)oc23)cc1 [3s]
Given back: 0.71

1: O=C(/C=C/c1ccc(Cl)cc1)c1cc(Br)cc2cc(-c3cccc(F)c3)oc12 [3m]
2: O=C(/C=C/c1ccc(Cl)cc1)c1cc(Br)cc2cc(-c3ccc(F)cc3)oc12 [3h]
Asked: Between 1 and 2 , which one has the lower reported IC50 value? In your reply, give the label of the chosen option.
Given back: 2

I: O=C(/C=C/c1ccc(F)cc1)c1cc(Br)cc2cc(-c3ccc(F)cc3)oc12 [3g]
II: COc1ccc(-c2cc3cc(Br)cc(C(=O)/C=C/c4ccc(F)cc4)c3o2)cc1 [3v]
Asked: Between I and II , which one has the lower reported IC50 value? In your reply, give the label of the chosen option.
Given back: II
(II: 0.0162 µM, I: 13.2 µM)
